- Test system: human SMAD7 mRNA
- assay method text: Dose-dependent inhibition of human SMAD7 mRNA expression in Hep3B cells (Example 3, Study 1 and 2)
- Type: cell-based
- condition info: 2220 nM, electroporation, approximately 16 hours, Study 2
Strand notation (5' to 3'): a small letter for the sugar, then the base; units joined by * are phosphorothioate-linked, units joined directly phosphodiester-linked; [ ] holds rarer units or linkages, { } end groups; capitals alone tell only the bases. k = constrained ethyl (cEt); [5mC] = 5-methylcytosine; d = 2'-deoxy (DNA)
measured attribute: % inhibition of SMAD7 mRNA expression (%)
Numbers only, in %.

799382 (antisense kA*k[5mC]*kT*dT*dT*dT*dA*dG*d[5mC]*dA*dA*dA*d[5mC]*kA*kG*kA) [compound 799382] | 36
799787 (k[5mC]*k[5mC]*kA*dA*dA*dG*d[5mC]*dA*dG*dA*dA*dG*dT*kA*kG*kA; antisense) [compound 799787] | 9
799967 (kG*kA*k[5mC]*dG*dA*dT*dG*dA*dA*dT*d[5mC]*d[5mC]*dT*kG*kG*k[5mC]; antisense) [compound 799967] | 0
800066 (antisense kT*kG*kT*dT*dT*dT*dA*dA*dG*dT*dA*dG*d[5mC]*kA*kG*k[5mC]) [compound 800066] | 42
790616 (k[5mC]*kT*kA*dA*dA*dT*dT*dT*d[5mC]*d[5mC]*dA*dA*dT*kG*kA*kG; antisense) [compound 790616] | 8

Record request: % inhibition of SMAD7 mRNA expression value, item 799668 (antisense kG*kA*k[5mC]*dA*dG*dA*dT*dG*d[5mC]*d[5mC]*dA*dG*d[5mC]*kA*kA*kG) [compound 799668]
17

----------
Record form. Attribute: WBC. Fill in for each entry.
- assay method text: Hematology assays after subcutaneous administration in beagle dogs (Example 8)
- Format: in vivo
- condition info: 30 mg/kg subcutaneous days 1, 3, 5, 8, 15, 22, 29

# map each substance to its WBC
1. 830037 (antisense CTATTGGCTGATCTGG; 3-10-3 cEt gapmer, further chemistry not given here) [compound 830037]
2. 830121 (AGAATCAAGCCCTGGC; 3-10-3 cEt gapmer, further chemistry not given here) [compound 830121]
3. 830025 (antisense TTTGTAAATCGAAAGC; 3-10-3 cEt gapmer, further chemistry not given here) [compound 830025]
4. 790615 (CCAATGAGAATGCTTC; 3-10-3 cEt gapmer, further chemistry not given here) [compound 790615]
5. 798781 (CGTAAGATTCACAGCA; 3-10-3 cEt gapmer, further chemistry not given here) [compound 798781]
6. 829994 (GGAGGCAGGGCCGCGA; 3-10-3 cEt gapmer, further chemistry not given here) [compound 829994]

8.5 ^3/μL
8.2 ^3/μL
5.7 ^3/μL
7.1 ^3/μL
7.3 ^3/μL
12.5 ^3/μL

----------
Kindly state % Inhibition for each of the entries shown.
- System: human SMAD7 mRNA
- assay method text: Antisense inhibition of human SMAD7 mRNA expression in Hep3B cells by 3-10-3 cEt gapmers, 10,000 nM, electroporation (Example 2)
- Format: cell-based
- condition info: Hep3B cells, electroporation with 10,000 nM antisense oligonucleotide, approximately 24 hours, RTS5062, percent inhibition of SMAD7 mRNA relative to untreated control cells
Strand notation (5' to 3'): a small letter for the sugar, then the base; units joined by * are phosphorothioate-linked, units joined directly phosphodiester-linked; [ ] holds rarer units or linkages, { } end groups; capitals alone tell only the bases. k = constrained ethyl (cEt); [5mC] = 5-methylcytosine; d = 2'-deoxy (DNA)
Reply with the number and its unit after it.

Here is how some substances turned out for % Inhibition.
799648 (antisense kA*kT*kG*dA*dA*dA*dG*d[5mC]*d[5mC]*d[5mC]*d[5mC]*d[5mC]*dA*kG*kA*k[5mC]) [compound 799648] | 9%
799824 (antisense kG*kA*kA*dA*dT*dG*dG*d[5mC]*dT*d[5mC]*d[5mC]*dT*dG*k[5mC]*kA*kA) [compound 799824] | 9%

From here, focus on the item given below.
# query: % Inhibition of entry 799608 (kA*k[5mC]*kG*dA*dT*d[5mC]*dA*dA*d[5mC]*dT*dT*d[5mC]*dT*kT*kG*kA; antisense) [compound 799608]
70%
